# System: corn (Zea mays)
# measurement protocol: Test A pre-/postemergence: corn
# Type: in vivo
# setup conditions: Preemergence, 125 g ai/ha; 0 to 100 scale (0 no effect, 100 complete control)
Plant response rating, Corn values by entry
reported endpoint: Plant response rating, Corn

COc1nn(-c2ccc(C(F)(F)F)cc2)nc1C(=O)c1ccnc(C(F)(F)F)c1	0
Cc1nn(-c2ccc(F)cc2)nc1Oc1cccc(OC(F)(F)F)c1	0
Cc1nn(-c2cccc(C(F)(F)F)c2)nc1Oc1cc(C(F)(F)F)ncn1	0
Cc1nn(-c2ccccc2)nc1C(=O)c1cccc(C(F)(F)F)c1	0

----------
# Tested on: pigweed (Amaranthus retroflexus)
# measurement protocol: Test A pre-/postemergence: pigweed
# Assay type: in vivo
# setup conditions: Postemergence, 125 g ai/ha; 0 to 100 scale, 0 is no effect, 100 is complete control
reported endpoint: Plant response rating, Pigweed

CCc1nn(-c2cccc(C(F)(F)F)c2)nc1Cc1cccc(C(F)(F)F)c1 [Compound 143]	100
O=C(c1ccnc(C(F)(F)F)c1)c1nn(-c2ccc(F)cc2)nc1F [Compound 158]	10
Cc1nn(-c2ccc(F)c(F)c2)nc1Oc1ccnc(C(F)(F)F)c1 [Compound 145]	100
CC(C)(C)c1nn(-c2ccc(F)cc2)nc1C(=O)c1ccnc(C(F)(F)F)c1 [Compound 175]	0
CCc1nn(-c2ccc(F)cc2F)nc1Oc1ccnc(C(F)(F)F)c1 [Compound 178]	100
Cc1nn(-c2ccc(C(F)(F)F)cn2)nc1C(=NO)c1cccc(C(F)(F)F)c1 [Compound 201]	60
Cc1nn(-c2ccc(F)c(C(F)(F)F)c2)nc1Oc1ccnc(C(F)(F)F)c1 [Compound 147]	100
